# System: SMN2 mRNA
# Assay Summary: RT-qPCR splicing assay, SMN2 canonical junction (CJ) mRNA
# Type: cell-based, human
# Test Settings: Homo sapiens; Table 5 panel; canonical junction qPCR; compound concentration having 50% response in CJ decrease; read-out: SMN2 IC50 (decrease in CJ mRNA levels)
pIC50: −log10 of the molar value.
Endpoint: pIC50

Before answering, review these 5 worked examples.
Molecule: Cc1cn2nc(-c3ccc4c(=O)n(C5CCNCC5)ccc4c3)cc(Oc3cccnc3)c2n1
pIC50: > 7.00
//
Molecule: CNCCn1ncc2cc(-c3cc(C)c4nc(C)cn4n3)ccc2c1=O
pIC50: > 7.00
//
Molecule: Cc1cn2nc(-c3cc(F)c4c(=O)n([C@H]5CCNC6(CC6)C5)ccc4c3)cc(C)c2n1 (single isomer, unassigned)
pIC50: > 7.00
//
Molecule: Cc1ncc(-c2ccc3c(=O)n(C4CCNCC4)cnc3c2)cn1
pIC50: 5.00 to 6.00
//
Molecule: Cc1cn2cc(-c3ncc4c(=O)n([C@@H]5CCNC5)ccc4n3)cc(F)c2n1
pIC50: > 7.00

Task item: System SMN2 mRNA. Read-out pIC50. Item Cc1cn2cc(-c3cc(F)c4c(=O)n(C5CNCCC5=O)cnc4c3)cc(F)c2n1 (stereo not shown) . Report value.
Reply: < 5.00

Task item: Fill: pIC50 (SMN2 mRNA) for this molecule Cc1cc(-c2ccc3c(c2)CCN(C2CCNCC2)C3=O)cc2cn(C)nc12
Reply: > 7.00
